Tested on: NOMO1
METHOD NOTES: cell viability relative to DMSO control; higher = less cytotoxic
CONDITIONS USED: RPMI 5 mM glucose + 10% dialyzed FBS; 48 h; 5.12 µM
PARAMETER MEASURED: cell viability (%)
Respond with the bare value in %.

# count of solved cases: 5
CN(C)C1=CC(=CC=C1)C\2=C\3C(=O)N(NC3=C/C(=O)N2C)C4=CC=CC=C4Cl = 10.1
CC(=O)N[C@@H]1[C@@H](NC(N)=N)\C=C(/O[C@H]1[C@H](O)[C@H](O)CO)C(O)=O = 106
CCC(C)N1\N=C/N(C1=O)C2=CC=C(C=C2)N3CCN(CC3)C4=CC=C(OC[C@H]5CO[C@@](C[N]6C=NC=N6)(O5)C7=CC=C(Cl)C=C7Cl)C=C4 (some centres not stated) = 98.9
COc1ccc(OC)c(-c2nnc3ccc(-c4ccc(OC)c(O[C@@H]5CCOC5)c4)nn23)c1 = 137
CC(C)N(C[C@H]1O[C@@H](n2cnc3c(N)ncnc32)[C@H](O)[C@@H]1O)[C@H]1C[C@@H](CCc2nc3cc(C(C)(C)C)ccc3[nH]2)C1 = 86.6

QUERY: // returns reported cell viability for input C/C(=N\NC(=S)N1CCC1)c1ccccn1
RESULT: 2.95

QUERY: Try c1ccc2c(Cc3c[nH]c4ccccc34)c[nH]c2c1 next.
RESULT: 88.5

QUERY: Try Cc1nn(C)c(COc2ccc(N3CCN([S+](=O)([O-])N(C)C)CC3)cc2)c1-c1cccc2c(CCCOc3cccc4ccccc34)c(C(=O)O)n(CCN3CCOCC3)c12 next.
RESULT: 109

QUERY: Try CCN(CC)CCOc1ccc(Cc2ccccc2)cc1 next.
RESULT: 97.5

QUERY: Try O=C1CCC[C@@H]2[C@H]3CCCN4CCC[C@@H](CN12)[C@@H]34 next.
RESULT: 19.1

QUERY: Try Cc1ccc([N+](=O)[O-])cc1[S+](=O)([O-])N(C)/N=C/c1cnc2ccc(Br)cn12 next.
RESULT: 4.24

QUERY: Try CC(C)(F)C[C@H](N[C@@H](c1ccc(-c2ccc([S+](C)(=O)[O-])cc2)cc1)C(F)(F)F)C(=O)NC1(C#N)CC1 next.
RESULT: 101

QUERY: Try O=C(Nc1c[nH]nc1-c1nc2cc(CN3CCOCC3)ccc2[nH]1)NC1CC1 next.
RESULT: 86.7

QUERY: Try C[C@]12Cc3cn[nH]c3C[C@@H]1CC[C@@H]1[C@@H]2CC[C@@]2(C)[C@H]1CC[C@]2(C)O next.
RESULT: 95.3

QUERY: Try NC(=O)Nc1sc(-c2ccc(F)cc2)cc1C(N)=O next.
RESULT: 75.6

QUERY: Try CCOC(=O)N1c2ccc(C(F)(F)F)cc2[C@@H](N(Cc2cc(C(F)(F)F)cc(C(F)(F)F)c2)C(=O)OC)C[C@H]1CC next.
RESULT: 119

QUERY: Try CC[N+](CC)(CC)CCOc1cccc(OCC[N+](CC)(CC)CC)c1OCC[N+](CC)(CC)CC next.
RESULT: 111

* * *

System: SEM cells
METHOD NOTES: cell viability relative to DMSO control; higher = less cytotoxic
CONDITIONS USED: HPLM + 10% dialyzed FBS; 48 h; 0.0632 µM
Measured cell viability values are reported for all entries that follow.
Respond with the bare value in %.

[O-]C(=O)C/1=N/C(=O)NC(=O)N1 = 85.1
O=C(Nc1c[nH]nc1-c1nc2cc(CN3CCOCC3)ccc2[nH]1)NC1CC1 = 40.6
CC\12CCC(=O)\C=C1CCC3C2CCC4(C)C3CCC4(O)C#C (stereo unspecified) = 113

QUERY: // returns reported cell viability for input CC(NC(C)(C)C)C(=O)c1cccc(Cl)c1 (stereo unspecified)
RESULT: 109

QUERY: Try CCC(C)N1\N=C/N(C1=O)C2=CC=C(C=C2)N3CCN(CC3)C4=CC=C(OC[C@H]5CO[C@@](C[N]6C=NC=N6)(O5)C7=CC=C(Cl)C=C7Cl)C=C4 (stereo partly specified) next.
RESULT: 119

QUERY: Try O=C(O)CCCCC(CCSCc1ccccc1)SCc1ccccc1 (stereo unspecified) next.
RESULT: 104

* * *

Measured cell viability values are reported for all entries that follow.
System: NOMO1
METHOD NOTES: cell viability relative to DMSO control; higher = less cytotoxic
CONDITIONS USED: RPMI 5 mM glucose + 10% FBS; 48 h; 1.71 µM
Respond with the bare value in %.

# count of solved cases: 2
CCC[S+](=O)([O-])Nc1ccc(F)c(C(=O)c2c[nH]c3ncc(Cl)cc23)c1F = 108
CC1(CN2CCC(n3c(=O)[nH]c4ccccc43)CC2)OCc2ccccc2-n2cccc21 (stereo not drawn) = 96

Now for another entry.
QUERY: // returns reported cell viability for input O=C(CCCCCCC(=O)Nc1cccnc1)NO
RESULT: 83.6

* * *

Measured cell viability values are reported for all entries that follow.
Tested on: SEM cells
METHOD NOTES: cell viability relative to DMSO control; higher = less cytotoxic
CONDITIONS USED: RPMI 5 mM glucose + 10% dialyzed FBS; 48 h; 5.12 µM
Respond with the bare value in %.

# count of solved cases: 2
N\C1=N\C2=C(N=C[N]2COCCO)C(=O)N1 = 88.2
O=C(CCCCCCC(=O)Nc1cccnc1)NO = 64

Now for another entry.
QUERY: // returns reported cell viability for input CCn1c(-c2nonc2N)nc2c(C#CC(C)(C)O)ncc(OC[C@H]3CCCNC3)c21
RESULT: 62.8

* * *

Test system: NOMO1
METHOD NOTES: cell viability relative to DMSO control; higher = less cytotoxic
CONDITIONS USED: RPMI 5 mM glucose + 10% FBS; 48 h; 0.0211 µM
Measured cell viability values are reported for all entries that follow.
Respond with the bare value in %.

# count of solved cases: 2
Cc1ccc(C(=O)Nc2cccc(C(F)(F)F)c2)cc1-c1ccc2nc(NCCN3CCOCC3)ncc2c1 = 113
N[C@H]2CN(CC12CC1)c3c(F)cc4c(c3Cl)[N@@](C=C(C4=O)C(=O)O)C5C[C@H]5F (stereo not given in full) = 78.6

QUERY: // returns reported cell viability for input COC(=O)Nc1nc2cc(C(=O)c3ccc(F)cc3)ccc2[nH]1
RESULT: 95.3

QUERY: Try C[N]1C=C(C2=CC=CC=C12)\C3=C(\C(=O)NC3=O)C4=C[N](C5CCN(CC5)CC6=NC=CC=C6)C7=C4C=CC=C7 next.
RESULT: 107

QUERY: Try O=[N+]([O-])c1ncc[nH]1 next.
RESULT: 84.2

* * *

Tested on: P12-Ichikawa
METHOD NOTES: cell viability relative to DMSO control; higher = less cytotoxic
CONDITIONS USED: HPLM + 10% dialyzed FBS; 48 h; 15.4 µM
Measured cell viability values are reported for all entries that follow.
Output should be the measured figure followed by the unit it is expressed in.

COc1cc(Nc2c(C#N)cnc3cc(OCCCN4CCN(C)CC4)c(OC)cc23)c(Cl)cc1Cl = 4.36%
O=S(=O)([O-])CCS.[Na+] = 18.1%
OC1=CC=C(C=C1)\C2=C\OC3=C(C(=CC(=C3)O)O)C2=O = 117%

Now for another entry.
QUERY: What measured cell viability is associated with CC(C)(F)C[C@H](N[C@@H](c1ccc(-c2ccc([S+](C)(=O)[O-])cc2)cc1)C(F)(F)F)C(=O)NC1(C#N)CC1 on P12-Ichikawa?
RESULT: 110%

* * *

Tested on: SEM cells
METHOD NOTES: cell viability relative to DMSO control; higher = less cytotoxic
CONDITIONS USED: HPLM + 10% dialyzed FBS; 48 h; 46.1 µM
Classes (cell viability): bottom range: < 30%; center range: ≥ 30% and < 90%; top range: ≥ 90%

// known answers, use as guide
CCC[S+](=O)([O-])Nc1ccc(F)c(C(=O)c2c[nH]c3ncc(Cl)cc23)c1F = bottom range
CCN1C[C@H](C)[N]2C(=C(O)C3=C2\C(=N/N(CC4=CC=C(F)C(=C4)Cl)C3=O)C(=O)NC)C1=O = top range
C[C@@H]1O[C@@H](O[C@H]2C[C@@H](O)[C@]3(CO)[C@H]4[C@H](O)C[C@]5(C)[C@@H](C6=CC(=O)OC6)CC[C@]5(O)[C@@H]4CC[C@]3(O)C2)[C@H](O)[C@H](O)[C@H]1O = bottom range
Cc1nn(C)c(COc2ccc(N3CCN([S+](=O)([O-])N(C)C)CC3)cc2)c1-c1cccc2c(CCCOc3cccc4ccccc34)c(C(=O)O)n(CCN3CCOCC3)c12 = center range
CN1CCN(c2c(F)cc3c(=O)c(C(=O)O)cn(CCF)c3c2F)CC1 = top range
CCC(C)N1\N=C/N(C1=O)C2=CC=C(C=C2)N3CCN(CC3)C4=CC=C(OC[C@H]5CO[C@@](C[N]6C=NC=N6)(O5)C7=CC=C(Cl)C=C7Cl)C=C4 (stereo partly drawn) = top range
N[S+](=O)([O-])c1cc2c(cc1Cl)NC(C(Cl)Cl)N[S+]2(=O)[O-] (stereo not drawn) = top range
O=C(Nc1nnc(-c2ccco2)o1)c1cc(-c2ccccc2)nc2ccccc12 = bottom range

QUERY: Band for O=C(CC12CC3CC(CC(C3)C1)C2)Nc1cccc2nc(NCCNCCO)ccc12 ?
RESULT: center range
